- system: T1, human PVRIG on FlpinCHO-PVRIG cells (human, UniProt Q6DKI7 41-326)
- T1 construct: whole, on cells
- T1 sequence (looked up): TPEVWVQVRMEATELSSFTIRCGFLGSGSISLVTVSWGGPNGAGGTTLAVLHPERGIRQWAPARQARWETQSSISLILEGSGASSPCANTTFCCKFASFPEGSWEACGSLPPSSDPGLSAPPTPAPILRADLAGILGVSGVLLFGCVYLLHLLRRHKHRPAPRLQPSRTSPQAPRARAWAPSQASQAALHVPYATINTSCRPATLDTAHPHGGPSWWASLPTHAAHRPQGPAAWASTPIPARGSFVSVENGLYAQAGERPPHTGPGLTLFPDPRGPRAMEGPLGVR
- test_protocol: FACS, FlpinCHO-PVRIG cells
Listing of recorded AUC % to parental Ab by entry.
Reply with just the number (in %).

[[record]]
binder = "PVRIG-A50 (Fc fusion, heavy chain antibody VHH-hinge-CH2-CH3, human IgG1 constant part; also called PVRIG-50; not shown: human IgG1 hinge-CH2-CH3) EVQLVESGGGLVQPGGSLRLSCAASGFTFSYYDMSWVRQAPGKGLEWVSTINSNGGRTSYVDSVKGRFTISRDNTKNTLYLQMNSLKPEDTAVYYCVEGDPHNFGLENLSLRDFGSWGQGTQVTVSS"
unit = "%"
measured_result = 100


Continue with the binder presented below.
Consider the binder shown here: PVRIG-A50-H1 (Fc fusion, humanized variant of PVRIG-A50; also called A50.VH1; not shown: constant part not restated for the humanized forms; parents are VHH-hinge-CH2-CH3 of human IgG1; detected by anti-human) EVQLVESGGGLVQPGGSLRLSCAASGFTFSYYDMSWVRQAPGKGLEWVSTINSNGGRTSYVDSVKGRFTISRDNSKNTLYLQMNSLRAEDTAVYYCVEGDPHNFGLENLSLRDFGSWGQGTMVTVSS What is its recorded AUC % to parental Ab?
101
